# Target entity: PTK2 enzyme (Homo sapiens)
# Construct: purchased Invitrogen PV3832
# Experimental protocol: PTK2 enzyme test, Assay 2 (DELFIA, poly-Glu-Tyr substrate, antibody PT66)
# Assay type: biochemical
# Test parameters: Assay 2 (values marked *); 1 h pre-incubation, 0.5% DMSO
Quantity name: IC50 (nM)

Some solved entries appear below for comparison.
COc1cc(C(=O)NC2CCN(C)CC2)c(F)cc1Nc1ncc(Cl)c(N[C@@H]2CCC[C@H]2N(C)S(C)(=O)=O)n1 has a reported IC50 of 0.53

COc1cc(N2CCN(C(C)(C)C)CC2)c(Cl)cc1Nc1ncc(Cl)c(N[C@@H]2CCCC[C@H]2N(C)S(C)(=O)=O)n1 has a reported IC50 of 1

COc1ccc(C(=O)NCCN(C)C)cc1Nc1ncc(C(F)(F)F)c(N[C@@H]2CCCC[C@H]2N(C)S(C)(=O)=O)n1 has a reported IC50 of 0.76

COCCN1CCC(NC(=O)c2cc(OC)c(Nc3ncc(Cl)c(N[C@@H]4CCC[C@H]4N(C)S(C)(=O)=O)n3)cc2Cl)CC1 has a reported IC50 of 0.49

COc1cc(C(=O)NC2CCN(C)CC2)c(F)cc1Nc1ncc(Br)c(N[C@@H]2CCC[C@H]2N(C)S(C)(=O)=O)n1 has a reported IC50 of 0.5

[P] COc1cc(N2CCN(C(C)(C)C)CC2)c(C)cc1Nc1ncc(C(F)(F)F)c(N[C@@H]2CCCC[C@H]2N(C)S(C)(=O)=O)n1
[Q] C#CCNC(=O)c1cc(OC)c(Nc2ncc(C(F)(F)F)c(N[C@@H]3CCC[C@H]3NS(C)(=O)=O)n2)cc1C
Request: Could you check which of P and Q has a smaller value for IC50? Lab log: write the label of the selected item as the result.
Response: Q

====

# Target entity: PTK2 enzyme (Homo sapiens, UniProt Q05397)
# Construct: purchased Invitrogen PV3832
# Sequence (Q05397 whole entry): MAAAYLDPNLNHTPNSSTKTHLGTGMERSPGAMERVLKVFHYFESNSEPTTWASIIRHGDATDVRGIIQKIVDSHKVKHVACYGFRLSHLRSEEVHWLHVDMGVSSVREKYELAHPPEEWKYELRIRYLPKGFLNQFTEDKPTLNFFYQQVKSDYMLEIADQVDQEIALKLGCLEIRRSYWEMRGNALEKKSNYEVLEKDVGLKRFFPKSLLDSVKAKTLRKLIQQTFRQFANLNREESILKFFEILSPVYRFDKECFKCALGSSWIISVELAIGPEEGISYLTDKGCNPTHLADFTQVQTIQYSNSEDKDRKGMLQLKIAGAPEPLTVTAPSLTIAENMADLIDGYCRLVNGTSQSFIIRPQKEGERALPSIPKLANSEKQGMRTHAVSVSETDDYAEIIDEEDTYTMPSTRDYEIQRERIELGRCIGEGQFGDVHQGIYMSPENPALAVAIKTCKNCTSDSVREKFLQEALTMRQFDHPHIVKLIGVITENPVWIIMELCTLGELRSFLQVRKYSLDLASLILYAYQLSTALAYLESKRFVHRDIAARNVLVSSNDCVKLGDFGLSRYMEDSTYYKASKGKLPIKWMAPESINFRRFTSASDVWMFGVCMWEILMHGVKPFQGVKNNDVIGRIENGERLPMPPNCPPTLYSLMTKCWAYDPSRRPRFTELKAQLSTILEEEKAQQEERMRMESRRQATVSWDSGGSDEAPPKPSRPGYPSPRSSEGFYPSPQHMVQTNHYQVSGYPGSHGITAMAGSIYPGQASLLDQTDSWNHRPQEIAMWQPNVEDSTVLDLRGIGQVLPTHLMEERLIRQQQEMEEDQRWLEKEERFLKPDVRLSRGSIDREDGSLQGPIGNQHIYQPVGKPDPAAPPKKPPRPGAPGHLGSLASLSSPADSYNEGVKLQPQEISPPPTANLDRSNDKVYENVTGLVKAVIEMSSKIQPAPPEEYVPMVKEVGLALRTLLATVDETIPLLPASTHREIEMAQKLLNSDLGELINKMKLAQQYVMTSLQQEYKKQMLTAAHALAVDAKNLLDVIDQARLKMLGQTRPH
# Experimental protocol: PTK2 enzyme test, Assay 1 (DELFIA, poly-Glu-Tyr substrate, antibody PT60)
# Format: biochemical
# Test parameters: Assay 1 (values without *); 1 h pre-incubation, 2% DMSO
Quantity name: IC50 (nM)

COc1cc(CN2CCOCC2)ccc1Nc1ncc(C(F)(F)F)c(N[C@@H]2CCCC[C@H]2NC(C)=O)n1 has a reported IC50 of 1

COc1cc(C(=O)NCCN(C)C)ccc1Nc1ncc(C(F)(F)F)c(N[C@@H]2CCCC[C@H]2N(C)C(C)=O)n1 has a reported IC50 of 0.95

COc1cc(C(=O)NC2CCCN(C)C2)ccc1Nc1ncc(Br)c(N[C@@H]2CCCC[C@H]2NC(C)=O)n1 (some centres unmarked) has a reported IC50 of 1

COc1cc(CN(C)C)ccc1Nc1ncc(C(F)(F)F)c(N[C@@H]2CCCC[C@H]2NC(C)=O)n1 has a reported IC50 of 1

COc1cc(C(=O)NC2CCC(N(C)C)CC2)ccc1Nc1ncc(C(F)(F)F)c(N[C@@H]2CCCC[C@H]2N(C)C(C)=O)n1 (some centres unmarked) has a reported IC50 of 1

====

# Target entity: PTK2 enzyme (Homo sapiens, UniProt Q05397)
# Construct: purchased Invitrogen PV3832
# Experimental protocol: PTK2 enzyme test, Assay 2 (DELFIA, poly-Glu-Tyr substrate, antibody PT66)
# Format: biochemical
# Test parameters: Assay 2 (values marked *); 1 h pre-incubation, 0.5% DMSO
pIC50: −log10 of the molar value.
Quantity name: pIC50

COCCNC(=O)c1ccc(OC)c(Nc2ncc(C(F)(F)F)c(N[C@@H]3CCCC[C@H]3NS(C)(=O)=O)n2)c1 [Example I-181] has a reported pIC50 of 9.37

COc1cc(N2CCN(C)CC2)c(Cl)cc1Nc1ncc(C(F)(F)F)c(N[C@@H]2CCC[C@H]2N(C)S(C)(=O)=O)n1 [Example I-139] has a reported pIC50 of 9.31

COc1cc(NC(=O)[C@H]2CCCN2C)ccc1Nc1ncc(C(F)(F)F)c(N[C@@H]2CCCC[C@H]2N(C)S(C)(=O)=O)n1 [Example I-146] has a reported pIC50 of 9.24

====

# Target entity: PTK2 enzyme (Homo sapiens, UniProt Q05397)
# Construct: purchased Invitrogen PV3832
# Experimental protocol: PTK2 enzyme test, Assay 1 (DELFIA, poly-Glu-Tyr substrate, antibody PT60)
# Assay type: biochemical
# Test parameters: Assay 1 (values without *); 1 h pre-incubation, 2% DMSO
Quantity name: IC50 (nM)

COc1ccccc1Nc1ncc(Br)c(N[C@@H]2CCCC[C@H]2NC(C)=O)n1 has a reported IC50 of 8

COc1cc(C(=O)NC2CCN(C)CC2)ccc1Nc1ncc(C(F)(F)F)c(N[C@@H]2CCCC[C@H]2NC(=O)CN2CCN(C)CC2)n1 has a reported IC50 of 200

CNCc1ccc(Nc2ncc(C(F)(F)F)c(N[C@@H]3CCCC[C@H]3NC(C)=O)n2)c(OC)c1 has a reported IC50 of 1

COc1cc(C(=O)NC2CCN(C)CC2)ccc1Nc1ncc(C(F)(F)F)c(N[C@@H]2CCCC[C@H]2NC(=O)CN(C)C)n1 has a reported IC50 of 15

COCC(=O)N[C@@H]1CCCC[C@H]1Nc1nc(Nc2ccc(C(=O)NC3CCN(C)CC3)cc2OC)ncc1C(F)(F)F has a reported IC50 of 4

[P] CNCc1ccc(Nc2ncc(C(F)(F)F)c(N[C@@H]3CCCC[C@H]3NC(=O)COC)n2)c(OC)c1
[Q] COc1cc(C(=O)NCCN(C)C)ccc1Nc1ncc(Cl)c(N[C@@H]2CCCC[C@H]2NC(C)=O)n1
Request: Which of the two gives a bigger number for IC50: P or Q ? Lab log: write the label of the selected item as the result.
Response: P

[1] COc1cc(C(=O)NC2CCN(C)CC2)ccc1Nc1ncc(C(C)C)c(N[C@@H]2CCCC[C@H]2N(C)S(C)(=O)=O)n1
[2] COc1cc(C(=O)NC2CCN(C)CC2)ccc1Nc1ncc(C(F)(F)F)c(N[C@@H]2CCCC[C@H]2NC(=O)C2CCC2)n1
Request: Could you check which of 1 and 2 has a smaller value for IC50? Lab log: write the label of the selected item as the result.
Response: 1
(1: 0.64 nM, 2: 3 nM)
